Protocol text: NCI Yeast Anticancer Drug Screen. Data for the rad50 strain (AID 155);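 also: 0% = growth of vehicle-only cultures of the same strain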
Run conditions: S. cerevisiae rad50 strain growth inhibition; at 50.0 µM (retest, dose inferred, filed as 5.0); stronger effect = higher value
Compounds without any hit were thinned out: in the full panel of roughly 79,000, 15% have a hit.

{"Compound": "CCN(CC)CCOc1ccc2c(C)c(-c3ccccc3)c(=O)oc2c1", "Unit annotation": "%", "growth inhibition": 23}
{"Compound": "O=C(CC1=Nc2nnc(CCCCCCCc3nnc4n3C(=O)C(CC(=O)c3ccc5ccccc5c3)=N4)n2C1=O)c1ccc2ccccc2c1", "Unit annotation": "%", "growth inhibition": 85}
{"Compound": "O=S(O)CCCCSSCC(O)C(O)CSSCCCCS(=O)O (configuration not stated)", "Unit annotation": "%", "growth inhibition": 21}
{"Compound": "c1cc2c3c(cccc3c1)-c1cnccc1-2", "Unit annotation": "%", "growth inhibition": 54}
{"Compound": "O=c1[nH]c(SCc2c(Cl)c(Cl)c(Cl)c(Cl)c2Cl)nc(=S)[nH]1", "Unit annotation": "%", "growth inhibition": 76}
{"Compound": "O=C1c2cc3c(cc2CC12Cc1ccccc1C2)CCC3", "Unit annotation": "%", "growth inhibition": 21}
{"Compound": "CC(C)(C)CC(C)(C)c1ccc(OCCO)cc1", "Unit annotation": "%", "growth inhibition": 98}
{"Compound": "CCCCCCCCCC(=O)c1ccc(O)c(O)c1O", "Unit annotation": "%", "growth inhibition": 98}
{"Compound": "O=C1C=CC(=O)c2c1ccc1c3ccccc3n(Cc3ccccc3)c21", "Unit annotation": "%", "growth inhibition": 84}
{"Compound": "Clc1ccc(/C=C/c2ccccn2)c(Cl)c1", "Unit annotation": "%", "growth inhibition": 43}
{"Compound": "S=c1nc[nH]c2[nH]ccc12", "Unit annotation": "%", "growth inhibition": -4}
{"Compound": "Cn1c2ccccc2c(=O)c2ccccc21", "Unit annotation": "%", "growth inhibition": 38}
